# test-summary: Pharmacokinetic assay of compounds in mice
# Assay type: in vivo, male ICR mice
# condition-summary: male, ICR, mouse, plasma, IV 3 mg/kg, read-out: Apparent volume of distribution Vd
readout-name: Vd

Consider the worked cases shown below.
| compound | Vd |
| --- | --- |
| Cc1cc2cc(n1)-c1cnn(C)c1OCCC[C@@H](C)CN1/C(=N/C2=O)Nc2ccc(N=S(C)(C)=O)c(Cl)c21 | 1.6 L/kg |
| Cc1cc2cc(n1)-c1cnn(C)c1OCCC[C@@H](C)CN1/C(=N/C2=O)Nc2ccc(N=S3(=O)CCCC3)cc21 [WX-010 (trifluoroacetate)] | 1 L/kg |
| Cc1cc2cc(n1)-c1cnn(C)c1OCCC[C@@H](C)CN1/C(=N/C2=O)Nc2ccc(N=S3(=O)CCOCC3)cc21 | 1 L/kg |
| Cc1cc2cc(n1)-c1cnn(C)c1OC[C@H]1CC[C@H](C1)CN1/C(=N/C2=O)Nc2ccc(N=S(C)(C)=O)cc21 (single isomer, unassigned) [WX-027A] | 1 L/kg |

In the following, a different compound is considered.
What value of Vd has been reported for the following compound? Cc1cc2cc(n1)-c1cnn(C)c1OCCC[C@@H](C)CN1/C(=N/C2=O)Nc2ccc(N=S(C)(C)=O)cc21 1.9 L/kg

* * *

# test-summary: Pharmacokinetic assay of compounds in mice
# Format: in vivo, male ICR mice
# condition-summary: male, ICR, mouse, plasma, IV 3 mg/kg, read-out: Half-life T1/2 (converted)
Provide the recorded half-life for the entries that follow.

| compound | half-life |
| --- | --- |
| Cc1cc2cc(n1)-c1cnn(C)c1OCCC[C@@H](C)CN1/C(=N/C2=O)Nc2ccc(N=S(C)(C)=O)c(Cl)c21 [WX-019] | 2.5 h |
| Cc1cc2cc(n1)-c1cnn(C)c1OC[C@H]1CC[C@H](C1)CN1/C(=N/C2=O)Nc2ccc(N=S(C)(C)=O)cc21 (single isomer, unassigned) [WX-027A] | 1.1 h |
| Cc1cc2cc(n1)-c1cnn(C)c1OCCC[C@@H](C)CN1/C(=N/C2=O)Nc2ccc(N=S3(=O)CCCC3)cc21 [WX-010 (trifluoroacetate)] | 2.8 h |
| Cc1cc2cc(n1)-c1cnn(C)c1OCCC[C@@H](C)CN1/C(=N/C2=O)Nc2ccc(N=S3(=O)CCOCC3)cc21 [WX-013] | 3.3 h |

In the following, a different compound is considered.
What value of half-life has been reported for the following compound? Cc1cc2cc(n1)-c1cnn(C)c1OCCC[C@@H](C)CN1/C(=N/C2=O)Nc2ccc(N=S(C)(C)=O)cc21 [WX-006] 3.6 h

* * *

# System: Ba/F3-FL-EGFR(L858R/T790M/C797S) phosphorylation
# test-summary: Inhibition of EGFR phosphorylation in cells, Western Blot
# Assay type: cell-based
# condition-summary: p-EGFR, 4 h incubation, read-out: Cell half-maximal inhibition concentration IC50 Ba/F3-FL-EGFR(L858R/T790M/C797S)
Provide the recorded pIC50 for the entries that follow.
One number for each entry, as −log10 of the molar value.

Provide each entry's pIC50 from the list below.
1. Cc1cc2cc(n1)-c1cnn(C)c1OCCC[C@@H](C)CN1/C(=N/C2=O)Nc2ccc(N=S3(=O)CCCC3)cc21 [WX-010 (trifluoroacetate)]
2. Cc1cc2cc(n1)-c1cnn(C)c1OC[C@H]1CC[C@H](C1)CN1/C(=N/C2=O)Nc2ccc(N=S(C)(C)=O)cc21 (single isomer, unassigned) [WX-027A]

8.64
8.68

Provide each entry's pIC50 from the list below.
1. Cc1cc2cc(n1)-c1cnn(C)c1OCCC[C@@H](C)CN1/C(=N/C2=O)Nc2ccc(N=S(C)(C)=O)cc21
2. Cc1cc2cc(n1)-c1cnn(C)c1OCCC[C@@H](C)CN1/C(=N/C2=O)Nc2ccc(N=S3(=O)CCOCC3)cc21

8.47
8.54
